- Tested On: T1, GLP-1R S206A (Homo sapiens)
- T1 chain: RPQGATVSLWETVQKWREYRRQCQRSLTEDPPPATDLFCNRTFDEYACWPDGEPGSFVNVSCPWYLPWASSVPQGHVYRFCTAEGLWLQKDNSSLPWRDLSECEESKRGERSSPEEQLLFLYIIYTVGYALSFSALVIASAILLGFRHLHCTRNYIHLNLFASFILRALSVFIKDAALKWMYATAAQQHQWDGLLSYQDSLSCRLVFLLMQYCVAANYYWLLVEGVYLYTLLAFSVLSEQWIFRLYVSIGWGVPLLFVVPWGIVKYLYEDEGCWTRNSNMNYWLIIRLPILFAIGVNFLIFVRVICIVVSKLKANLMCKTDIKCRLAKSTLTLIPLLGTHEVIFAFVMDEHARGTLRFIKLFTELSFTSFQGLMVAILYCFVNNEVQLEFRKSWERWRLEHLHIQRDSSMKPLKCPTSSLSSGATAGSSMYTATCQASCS
No end group written: not given here.
pIC50 listing for selected binders.
pIC50 field: float, defined as -log10 of concentration (mol/L).

[[record]]
binder = "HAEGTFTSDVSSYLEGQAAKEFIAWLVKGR (not fully specified (C-terminus)) [glucagon-like peptide-1]"
readout_kind = "pIC50"
reading = 8.31


Now for a further binder.
## Input What value of measured pIC50 is listed for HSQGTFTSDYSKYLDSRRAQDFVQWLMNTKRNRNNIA [oxyntomodulin] ?
## Output 7.78
